Here the recorded protein stability index is given for each entry.
test system: Saccharomyces cerevisiae; assay: protein stability index of tFT-peptide fusion (C-terminal peptide) (PSI (0-1 scale)); higher = more stable (slower turnover); details: genetic background: wild type; temperature: 30 C;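 also: PSI is a weighted mean of sequencing reads over stability bins, variants kept only with over 10 reads, mCherry proximal and sfGFP distal, peptide attached via GGGS linker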
Field format: numeric only.

In [3]: df
Out[3]:
       seq_text         measurement_name  readout_number
0  VVWGGWGGWGCW  protein stability index            0.81
1  EELTVLCGLLKT  protein stability index            0.64
2  GFPASVCGCMLW  protein stability index           0.651
3  SRTDGLIYTALI  protein stability index           0.676
4  GGGGGWGGAGGV  protein stability index           0.737

### Prompt Requested read-out: protein stability index. Entry: RPSYRFFVRCSP
### Response 0.762

### Prompt Requested read-out: protein stability index. Entry: VDSPFPTPLPLI
### Response 0.685

### Prompt Requested read-out: protein stability index. Entry: EGDGLGGGGQGG
### Response 0.685

### Prompt Requested read-out: protein stability index. Entry: SVPVLLLSILSP
### Response 0.542

### Prompt Requested read-out: protein stability index. Entry: RGGGGGRVAREC
### Response 0.668

### Prompt Requested read-out: protein stability index. Entry: VRLSQVNRLICT
### Response 0.524

### Prompt Requested read-out: protein stability index. Entry: PPSSGPPSPSSL
### Response 0.578

### Prompt Requested read-out: protein stability index. Entry: THSLRIRESNNT
### Response 0.674

### Prompt Requested read-out: protein stability index. Entry: VASFLRFRLPPQ
### Response 0.71

### Prompt Requested read-out: protein stability index. Entry: CEPPRPGLLPLF
### Response 0.724

### Prompt Requested read-out: protein stability index. Entry: FRLLFSFFWGYV
### Response 0.595

### Prompt Requested read-out: protein stability index. Entry: NMRYRATIEACA
### Response 0.356

### Prompt Requested read-out: protein stability index. Entry: DEGFSRSGLLLK
### Response 0.692

### Prompt Requested read-out: protein stability index. Entry: GGVGGVRLVVSR
### Response 0.684

### Prompt Requested read-out: protein stability index. Entry: VGKGAGVRDGSR
### Response 0.707

### Prompt Requested read-out: protein stability index. Entry: TTPHTSFTILHP
### Response 0.696

### Prompt Requested read-out: protein stability index. Entry: MGGMGRGGRREI
### Response 0.692

### Prompt Requested read-out: protein stability index. Entry: KKKKQRKQEKKI
### Response 0.642

---

system: Saccharomyces cerevisiae; assay: protein stability index of tFT-peptide fusion (C-terminal peptide) (PSI (0-1 scale)); higher = more stable (slower turnover); details: genetic background: das1 deletion; temperature: 30 C
MEASUREMENT NAME: protein stability index
Field format: numeric only.

Reference set, count: 5
>>> print(df.to_string())
       seq_text         measurement_name  readout_number
0  LFFWWVAVVFRV  protein stability index           0.156
1  YGAGDLTKYFIV  protein stability index           0.607
2  GLSVFFFVGFIF  protein stability index           0.339
3  KRSPPPATPSSG  protein stability index           0.631
4  VRRGAVWCCLCG  protein stability index           0.623

### Prompt Requested read-out: protein stability index. Entry: WFYLLFVLFGLV
### Response 0.438
